B1: CPEB3 Ribozyme (parent)
chain: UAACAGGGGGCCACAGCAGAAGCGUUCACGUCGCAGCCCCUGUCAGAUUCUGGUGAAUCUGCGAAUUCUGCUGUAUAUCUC

Variants of: B1
ASSAY_INFO: self-cleavage, relative activity (ratio to wild type); higher = more cleavage; in vitro, sequencing
Assignment: determine reported self-cleavage for the given variants.
Lab note: jot down the number only; don't add units.

Indicate the recorded self-cleavage value for this variant: U60C U80G
0.44

Indicate the recorded self-cleavage value for this variant: G42U A75G
0.19

Indicate the recorded self-cleavage value for this variant: A18G U26C
0.33

Indicate the recorded self-cleavage value for this variant: A45G U80A
0.91

Indicate the recorded self-cleavage value for this variant: C29G A65G
0.27

Indicate the recorded self-cleavage value for this variant: U49C G70A
0.44

Indicate the recorded self-cleavage value for this variant: C17U A56U
0.22

Indicate the recorded self-cleavage value for this variant: U51A U72G
0.91

Indicate the recorded self-cleavage value for this variant: U49C U67A
0.28

Indicate the recorded self-cleavage value for this variant: A18G U78C
0.82

Indicate the recorded self-cleavage value for this variant: A3U A47C
0.69

Indicate the recorded self-cleavage value for this variant: U26A A75U
0.9

Indicate the recorded self-cleavage value for this variant: `U72G`
0.98

Indicate the recorded self-cleavage value for this variant: A18U C23U
0.23

Indicate the recorded self-cleavage value for this variant: A35G C37A
0.86

Indicate the recorded self-cleavage value for this variant: U26A U48C
0.47

Indicate the recorded self-cleavage value for this variant: C12A A28G
0.59

Indicate the recorded self-cleavage value for this variant: G19U G63U
0.28

Indicate the recorded self-cleavage value for this variant: A35U G70C
0.34

Indicate the recorded self-cleavage value for this variant: A45U G53U
0.58

Indicate the recorded self-cleavage value for this variant: U41A U78A
0.25

Indicate the recorded self-cleavage value for this variant: C17A U67C
0.44

Indicate the recorded self-cleavage value for this variant: U54G C71A
0.42

Indicate the recorded self-cleavage value for this variant: G70C U76A
0.11

Indicate the recorded self-cleavage value for this variant: A15U U43C
0.41

Indicate the recorded self-cleavage value for this variant: G19A U80C
0.27

Indicate the recorded self-cleavage value for this variant: A57G A77U
0.9

Indicate the recorded self-cleavage value for this variant: A5G A65C
0.25

Indicate the recorded self-cleavage value for this variant: A5G U43G
0.3

Indicate the recorded self-cleavage value for this variant: A57G U78A
0.97

Indicate the recorded self-cleavage value for this variant: A2U A21G
0.56

Indicate the recorded self-cleavage value for this variant: C32U U76C
0.2

Indicate the recorded self-cleavage value for this variant: G46A A75G
0.25

Indicate the recorded self-cleavage value for this variant: A13U A20G
0.93

Indicate the recorded self-cleavage value for this variant: A15G U49G
0.52

Indicate the recorded self-cleavage value for this variant: C34A U67C
0.29

Indicate the recorded self-cleavage value for this variant: G19C C37U
0.16

Indicate the recorded self-cleavage value for this variant: U31C U51G
0.89

Indicate the recorded self-cleavage value for this variant: U43A U72A
0.71

Indicate the recorded self-cleavage value for this variant: C37G G70C
0.2

Indicate the recorded self-cleavage value for this variant: A15G U25C
0.28

Indicate the recorded self-cleavage value for this variant: G36C U60A
0.08

Indicate the recorded self-cleavage value for this variant: A15U A28C
0.33

Indicate the recorded self-cleavage value for this variant: A18G U60G
0.14

Indicate the recorded self-cleavage value for this variant: A2U U41C
1.07

Indicate the recorded self-cleavage value for this variant: U25C A45G
0.26
